- Measurement Target: T1, huNav157 chimera 14 + β1-β2-β3 (human)
- T1 construct: Chimera of huNav1.7α (extracellular loops and transmembrane helices) and huNav1.5α (intracellular loops); also called Nav157ch14-β1-β2-β3; huNav157 chimera 14-beta1-beta2-beta3
- Measurement Notes: binding FACS, HEK FlpIn cells
Measured Attribute: EC50 (nM)
Write the value in nM as a bare number.

Binder	Quantity Unit	Number
F010302391 (VHH, also called F0103387G05(L11V, A14P, D23A, H37Y, G40A, A41P, D53G, D54G, D58G, N82bS, N83R, V89L, R105Q)-FLAG3-HIS6) VHH: EVQLVESGGGVVQPGGSLRLSCAASGRILRIGYMRWYRQAPGKQREFVARITGGSATGYADSVKGRFTISRDNAKNTVYLQMNSLRPEDTALYYCEALVTASVRGGSIHSGTYWGQGTLVTVSS	nM	2.3

Now for another entry.
Asked: Need EC50 of F010301648 (VHH, also called F0103387G05(L11V, A14P, N82bS, N83R, V89L, E93N, R105Q); E93N) VHH: EVQLVESGGGVVQPGGSLRLSCDASGRILRIGYMRWHRQGAGKQREFVARITDDSATDYADSVKGRFTISRDNAKNTVYLQMNSLRPEDTALYYCNALVTASVRGGSIHSGTYWGQGTLVTVSS , thanks.
Given back: 3.4
